The reported measurements were obtained from paper PMC6364417.

compounds and their reported Cell viability in kinase inhibitor library screening, IGR37 Parental, 1μΜ
Test system: IGR37 cells (parental)
method.summary: Kinase inhibitor library screening, PrestoBlue cell viability, 1 or 10 μM, 72 h
condition.description: IGR37 Parental; 1μΜ; 72 h; in %
When you answer, write just the number.

compound: COc1ccc(-c2ccc3ncc4c(c3c2)n(-c2ccc(N3CCNCC3)c(C(F)(F)F)c2)c(=O)n4C)cn1
readout.value: 2.3

compound: Oc1ccc(-c2nc(-c3ccncc3)c(-c3ccc(F)cc3)[nH]2)cc1
readout.value: 118.8

compound: COc1cccc2cc(-c3nc([C@H]4CC[C@H](C(=O)O)CC4)n4ncnc(N)c34)[nH]c12
readout.value: 84.3

compound: CCn1nnc2c(N3CCOCC3)nc(-c3ccc(NC(=O)Nc4ccc(C(=O)N5CCN(C)CC5)cc4)cc3)nc21
readout.value: 35.8

compound: CO[C@H]1C[C@@H]2CC[C@@H](C)[C@@](O)(O2)C(=O)C(=O)N2CCCC[C@H]2C(=O)O[C@H]([C@H](C)C[C@@H]2CC[C@@H](OC(=O)C(C)(CO)CO)[C@H](OC)C2)CC(=O)[C@H](C)/C=C(\C)[C@@H](O)[C@@H](OC)C(=O)[C@H](C)C[C@H](C)/C=C/C=C/C=C/1C
readout.value: 79.0

Q) Return reported Cell viability in kinase inhibitor library screening, IGR37 Parental, 1μΜ; argument: "O=C(Nc1cccc(Nc2ncc(Br)c(NCCc3cnc[nH]3)n2)c1)N1CCCC1"
A) 91.9

Q) Which measured Cell viability in kinase inhibitor library screening, IGR37 Parental, 1μΜ value corresponds to "Cc1nc(NC(=O)N2CCC[C@H]2C(N)=O)sc1-c1ccnc(C(C)(C)C(F)(F)F)c1" ?
A) 99.1

Q) Find the recorded Cell viability in kinase inhibitor library screening, IGR37 Parental, 1μΜ belonging to "CNC(=O)c1ccc(C)c(-n2c(C)cc(OCc3ccc(F)cc3F)c(Br)c2=O)c1" and report it.
A) 103.0

Q) Find the recorded Cell viability in kinase inhibitor library screening, IGR37 Parental, 1μΜ belonging to "COc1ccc(-c2ccc3c(N4CCOCC4)nc(N4C[C@@H](C)O[C@@H](C)C4)nc3n2)cc1CO" and report it.
A) 73.4

Q) What measured Cell viability in kinase inhibitor library screening, IGR37 Parental, 1μΜ goes with "CC(C)(C)c1nc(-c2cccc(NS(=O)(=O)c3c(F)cccc3F)c2F)c(-c2ccnc(N)n2)s1" ?
A) 34.2

Q) Suppose we examine the compound "COC(=O)Nc1ccc(-c2nc(N3CCOCC3)c3cnn(C4CCN(Cc5cccnc5)CC4)c3n2)cc1" ; what Cell viability in kinase inhibitor library screening, IGR37 Parental, 1μΜ value has been reported?
A) 75.9

Q) Reported Cell viability in kinase inhibitor library screening, IGR37 Parental, 1μΜ, compound "O=c1cc(N2CCOCC2)oc2c(-c3ccccc3)cccc12" : ____
A) 106.7

Q) What Cell viability in kinase inhibitor library screening, IGR37 Parental, 1μΜ value was documented for this compound, "COC(=O)Nc1ccc(-c2nc(N3CCOCC3)c3cnn(C4CCN(C(=O)OC)CC4)c3n2)cc1" ?
A) 82.1

Q) I am curious: what Cell viability in kinase inhibitor library screening, IGR37 Parental, 1μΜ value has been reported for "Cn1c(=O)n(-c2ccc(C(C)(C)C#N)cc2)c2c3cc(-c4cnc5ccccc5c4)ccc3ncc21" ?
A) 26.1

Q) Requested field: Cell viability in kinase inhibitor library screening, IGR37 Parental, 1μΜ. Item: O=C1NC(=O)C(=Cc2ccc(-c3ccc(F)cc3)o2)S1 (stereo in doubt)
A) 103.7

Q) So what does the record say about Cell viability in kinase inhibitor library screening, IGR37 Parental, 1μΜ for "COc1ncc(-c2ccc3nccc(-c4ccnnc4)c3c2)cc1NS(=O)(=O)c1ccc(F)cc1F" ?
A) 7.2
